# Tested on: U87-MG
# experimental protocol: Anti-proliferative activity, CellTiterGlo assay, U87-MG
# Assay type: cell-based
# run conditions: Homo sapiens, U-87 MG, 96 hrs incubation, read-out: Antiproliferative activities (IC50) U87-MG
experimental readout: IC50 (µM)
Field: numeric (µM). Do not append units.

For the record COc1c(Cl)c(C)c(/C=N/O)c(O)c1C/C=C(C)/C=C/[C@@]1(C)[C@H](C)CC[C@](C)(O)[C@@H]1C [Compound 7] , what value of IC50 is listed for U87-MG?
13.1

====

# Tested on: A549
# experimental protocol: Anti-proliferative activity, CellTiterGlo assay, A549
# Type: cell-based
# run conditions: Homo sapiens; A549, 96 hrs incubation; read-out: Antiproliferative activities (IC50) A549
experimental readout: IC50 (µM)
Field: numeric (µM). Do not append units.

Using the record for COc1c(Cl)c(C)c(/C=N/O)c(O)c1C/C=C(C)/C=C/[C@@]1(C)[C@H](C)CC[C@](C)(O)[C@@H]1C [Compound 7] , report its IC50.
6.5
